Numbers sourced from the supplement of paper PMC6897291.

# System: U-2932
# testDescription: growth inhibition by drug alone (1 - RLU/untreated control) (fraction); higher = stronger inhibition
# particulars: 1000 nM; time (day): 4; 177Lu-lilotomab satetraxetan 0 ug/ml
propertyLabel: growth inhibition by drug alone
Form rule: numeric answer, no unit written next to it.

Use these answered entries as a reference point.
>  <compound>
C[C@H](NC(=O)Cc1cc(F)cc(F)c1)C(=O)N[C@@H]1C(=O)N(C)c2ccccc2-c2ccccc21

>  <systemName>
U-2932

>  <propertyLabel>
growth inhibition by drug alone

>  <resultNumber>
-0.0187

$$$$
>  <compound>
NC(=O)Nc1cc(-c2cccc(F)c2)sc1C(=O)N[C@H]1CCCNC1

>  <systemName>
U-2932

>  <propertyLabel>
growth inhibition by drug alone

>  <resultNumber>
0.955

$$$$
>  <compound>
CCCCc1nc2cc(/C=C/C(=O)NO)ccc2n1CCN(CC)CC

>  <systemName>
U-2932

>  <propertyLabel>
growth inhibition by drug alone

>  <resultNumber>
0.941

$$$$

Consider the record given below.
Entry under test: "Oc1nc(-c2ccc(C(F)(F)F)cc2)nc2c1CSCC2" . Its growth inhibition by drug alone was 0.081

---

# Tested on: RIVA
# testDescription: growth inhibition by drug alone (1 - RLU/untreated control) (fraction); higher = stronger inhibition
# particulars: 10 nM; time (day): 3; 177Lu-lilotomab satetraxetan 0 ug/ml
Reported growth inhibition by drug alone by item:
Form rule: numeric answer, no unit written next to it.

Use these answered entries as a reference point.
>  <molecule>
CN1CCN(c2cccc(Nc3nc4c(-c5ccc(S(C)(=O)=O)cc5)cccn4n3)c2)CC1

>  <growth inhibition by drug alone>
-0.0335

$$$$
>  <molecule>
CCCS(=O)(=O)Nc1ccc(F)c(C(=O)c2c[nH]c3ncc(-c4ccc(Cl)cc4)cc23)c1F

>  <growth inhibition by drug alone>
-0.0219

$$$$

Entry under test: "Cn1cc(-c2ccc3nnc(Sc4ccc5ncccc5c4)n3n2)cn1" . Its growth inhibition by drug alone was 0.0128

---

# Tested on: U-2932
# testDescription: growth inhibition by drug plus 177Lu-lilotomab satetraxetan (1 - RLU/untreated control) (fraction); higher = stronger inhibition
# particulars: 1000 nM; time (day): 6; 177Lu-lilotomab satetraxetan 1 ug/ml
Counter-ions that a name gives are not always drawn.
Reported growth inhibition by drug plus 177Lu-lilotomab satetraxetan by item:

>  <compound>
CNC(=O)c1cc(Oc2ccc(NC(=O)Nc3ccc(Cl)c(C(F)(F)F)c3)c(F)c2)ccn1 [Regorafenib (BAY 73-4506)]

>  <result>
0.48

$$$$
>  <compound>
Cc1ccc(NC(=O)c2ccc(CN3CCN(C)CC3)cc2)cc1Nc1nccc(-c2cccnc2)n1 [Imatinib (Gleevec)]

>  <result>
0.171

$$$$
>  <compound>
N#CC1(c2ccc(NC(=O)c3cccnc3NCc3ccncc3)cc2)CCCC1 [Apatinib (YN968D1)]

>  <result>
0.0686

$$$$
>  <compound>
CN1CC[C@H](c2c(O)cc(O)c3c(=O)cc(-c4ccccc4Cl)oc23)[C@H](O)C1 [Flavopiridol hydrochloride]

>  <result>
0.983

$$$$
>  <compound>
Cc1[nH]c(/C=C2\C(=O)Nc3ccc(S(=O)(=O)N(C)c4cccc(Cl)c4)cc32)c(C)c1C(=O)N1CCN(C)CC1

>  <result>
0.249

$$$$
>  <compound>
Nc1ccccc1NC(=O)c1ccc(CNc2nccc(-c3cccnc3)n2)cc1 [Mocetinostat (MGCD0103)]

>  <result>
0.934

$$$$
>  <compound>
O=C(O)C1(C(=O)O)CCC1.[NH2-].[NH2-].[Pt+2] [Carboplatin]

>  <result>
0.221

$$$$
>  <compound>
Cn1cnc2c(F)c(Nc3ccc(Br)cc3Cl)c(C(=O)NOCCO)cc21 [AZD6244 (Selumetinib)]

>  <result>
0.285

$$$$
>  <compound>
Nc1cccc2c1C(=O)N(C1CCC(=O)NC1=O)C2=O (stereo not given) [Pomalidomide]

>  <result>
0.472

$$$$
>  <compound>
C#Cc1cccc(Nc2ncnc3cc(OC)c(OCCCCCCC(=O)NO)cc23)c1

>  <result>
0.984

$$$$

Entry under test: "CC[C@@H]1C(=O)N(C)c2cnc(Nc3ccc(C(=O)NC4CCN(C)CC4)cc3OC)nc2N1C1CCCC1" . Its growth inhibition by drug plus 177Lu-lilotomab satetraxetan was 0.982

Entry under test: Nc1cccc2c1CN(C1CCC(=O)NC1=O)C2=O (stereo not given) [Lenalidomide] . Its growth inhibition by drug plus 177Lu-lilotomab satetraxetan was 0.434
